So I've got a bunch of binders here, and I need their Off-Rate Ratio to that of EM0005-90c values.
- Target Under Test: human PD-L1/His fusion protein (human, UniProt Q9NZQ7 19-239)
- Sequence (Q9NZQ7 19-239 limits assumed): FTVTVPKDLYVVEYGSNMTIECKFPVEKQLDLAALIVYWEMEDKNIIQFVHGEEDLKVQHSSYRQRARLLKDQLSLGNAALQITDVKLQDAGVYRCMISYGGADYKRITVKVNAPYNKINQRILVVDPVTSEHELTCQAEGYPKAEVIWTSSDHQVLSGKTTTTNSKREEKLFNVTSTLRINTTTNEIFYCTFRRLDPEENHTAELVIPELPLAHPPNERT
- Measurement Description: BLI off-rate; test group 3
Number only, in %; omit the unit.

Field Off-Rate Ratio to that of EM0005-90c (entry HuEM0005-90-15 (antibody, human IgG1, V domains shown) VH: EVQLVQSGAEVKKPGASVKVSCKTSGYTFTSHSINWVRQATGQGLEWMGYMYIGNGYTEYNEKFKGRVTMTSNTSISTAYMELSSLRSEDTAVYYCAKITPVVAPYVMDYWGQGTSVTVSS VL: DIQMTQSPSFLSASVGDRVTITCKASQDVGTAVAWYQQKPGKAPKLLIYWASTRHTGVPDRFTGSGSGTEFTLTISSLQPEDFATYYCQQYSSYPYTFGQGTKLEIK ) reads 131

Field Off-Rate Ratio to that of EM0005-90c (entry HuEM0005-90-18 (antibody, human IgG1, V domains shown) VH: EVQLVQSGAEVKKPGASVKVSCKASGYTFTSHSINWVRQATGQGLEWIGYMYIGNGYTEYNEKFKGRATLTSNTSISTAYMELSSLRSEDTAVYYCAKITPVVAPYVMDYWGQGTSVTVSS VL: DIVMTQSPSFLSASVGDRVTITCKASQDVGTAVAWYQQKPGKAPKLLIYWASTRHTGVPDRFTGSGSGTDFTLTISSLQPEDFATYYCQQYSSYPYTFGQGTKLEIK ) reads 87

Field Off-Rate Ratio to that of EM0005-90c (entry HuEM0005-90-13 (antibody, human IgG1, V domains shown) VH: EVQLVQSGAEVKKPGASVKVSCKASGYTFTSHSINWVRQATGQGLEWMGYMYIGNGYTEYNEKFKGRVTLTSNTSISTAYMELSSLRSEDTAVYYCAKITPVVAPYVMDYWGQGTSVTVSS VL: DIQMTQSPSFLSASVGDRVTITCKASQDVGTAVAWYQQKPGKAPKLLIYWASTRHTGVPDRFTGSGSGTEFTLTISSLQPEDFATYYCQQYSSYPYTFGQGTKLEIK ) reads 115

Ref: patent US20230242675A1
